Target: Rap guanine nucleotide exchange factor 3 (Homo sapiens)
Sequence (whole entry): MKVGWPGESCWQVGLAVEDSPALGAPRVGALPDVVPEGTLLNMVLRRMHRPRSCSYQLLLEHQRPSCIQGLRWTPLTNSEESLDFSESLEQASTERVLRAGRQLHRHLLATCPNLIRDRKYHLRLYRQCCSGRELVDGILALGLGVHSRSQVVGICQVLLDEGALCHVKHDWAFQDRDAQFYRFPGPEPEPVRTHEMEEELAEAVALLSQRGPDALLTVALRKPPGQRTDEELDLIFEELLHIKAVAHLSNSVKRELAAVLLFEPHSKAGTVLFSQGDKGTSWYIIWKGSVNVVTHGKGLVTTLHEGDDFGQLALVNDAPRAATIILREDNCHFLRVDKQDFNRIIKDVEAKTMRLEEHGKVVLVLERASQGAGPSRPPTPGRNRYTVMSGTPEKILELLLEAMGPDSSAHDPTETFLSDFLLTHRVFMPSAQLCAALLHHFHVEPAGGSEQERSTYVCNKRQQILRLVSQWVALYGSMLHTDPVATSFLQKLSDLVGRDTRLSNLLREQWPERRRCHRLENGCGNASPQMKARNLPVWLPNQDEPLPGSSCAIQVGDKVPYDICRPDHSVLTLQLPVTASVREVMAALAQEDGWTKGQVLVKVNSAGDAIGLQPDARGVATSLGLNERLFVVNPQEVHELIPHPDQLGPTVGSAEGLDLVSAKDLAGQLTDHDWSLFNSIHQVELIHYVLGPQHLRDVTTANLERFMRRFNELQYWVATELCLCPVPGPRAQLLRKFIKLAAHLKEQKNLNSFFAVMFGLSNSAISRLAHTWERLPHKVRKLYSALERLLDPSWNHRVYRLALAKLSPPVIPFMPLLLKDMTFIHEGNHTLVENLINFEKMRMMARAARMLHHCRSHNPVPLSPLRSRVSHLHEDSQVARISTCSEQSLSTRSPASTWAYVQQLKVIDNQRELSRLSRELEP
Assay: Activation of EPAC1 in HUVEC assessed as reduction in IL-6-promoted signaling by measuring pSTAT3 protein levels at 100 uM pre-incubated for 30 mins before IL6 and sIL6Ralpha stimulation for 5 hrs by Western blotting analysis
Format: cell-based
Activity calls are given as the source filed them. The calls are words filed in the database; no cut-off is given here.
OBSERVED_PROPERTY: Activity

O=C(COc1ccc2ccccc2c1)NS(=O)(=O)c1ccc([N+](=O)[O-])c(F)c1 :: inactive
Nc1ccc(S(=O)(=O)NC(=O)COc2ccc3ccccc3c2)cc1F :: inactive
Cc1cc(Nc2ncccc2C(F)(F)F)cc(S(=O)(=O)NC(=O)COc2ccc3ccccc3c2)c1 :: Active
Cc1ccc(S(=O)(=O)NC(=O)COc2ccc3ccccc3c2)c(C)c1 :: Active

# evaluate next
Inquiry: Read the entry `COc1ccc2ccc(OCC(=O)NS(=O)(=O)c3ccc(N)cc3OC)cc2c1` and write its reported Activity.
Reply text: inactive

----------
Catalogue of Activity values
Target: Rap guanine nucleotide exchange factor 3 (Homo sapiens) (UniProt O95398)
Test: Binding affinity to GST-tagged recombinant EPAC1 CNBD (169 to 318 residues) (unknown origin) expressed in Escherichia coli BL21 Star (DE3) assessed as relative fluorescence intensity incubated for 4 hrs by 8-NBD-cAMP competition binding assay relative to control
Design: concentration or dose not given beside the values

Inquiry: Read the entry `COc1ccc2ccc(OCC(=O)NS(=O)(=O)c3cc(Cl)cc(Cl)c3)cc2c1` and write its reported Activity.
Reply text: 54%

Inquiry: Read the entry `Cc1cc(C)cc(S(=O)(=O)NC(=O)COc2ccc3ccccc3c2)c1` and write its reported Activity.
Reply text: 38%

Inquiry: Read the entry `Cc1cc(C)c(S(=O)(=O)NC(=O)CN2CCN(c3ccccn3)CC2)c(C)c1` and write its reported Activity.
Reply text: 119%

Inquiry: Read the entry `Cc1cc(C)c(S(=O)(=O)NC(=O)CSc2ccc3ccccc3c2)c(C)c1` and write its reported Activity.
Reply text: 92%
